- assay.target: T1, monkey C5-mmh (monkey, UniProt P01031 19-1676 (human entry), limits assumed)
- T1 construct: Recombinant monkey C5 with a C-terminal myc-myc-hexahistidine tag
- T1 chain: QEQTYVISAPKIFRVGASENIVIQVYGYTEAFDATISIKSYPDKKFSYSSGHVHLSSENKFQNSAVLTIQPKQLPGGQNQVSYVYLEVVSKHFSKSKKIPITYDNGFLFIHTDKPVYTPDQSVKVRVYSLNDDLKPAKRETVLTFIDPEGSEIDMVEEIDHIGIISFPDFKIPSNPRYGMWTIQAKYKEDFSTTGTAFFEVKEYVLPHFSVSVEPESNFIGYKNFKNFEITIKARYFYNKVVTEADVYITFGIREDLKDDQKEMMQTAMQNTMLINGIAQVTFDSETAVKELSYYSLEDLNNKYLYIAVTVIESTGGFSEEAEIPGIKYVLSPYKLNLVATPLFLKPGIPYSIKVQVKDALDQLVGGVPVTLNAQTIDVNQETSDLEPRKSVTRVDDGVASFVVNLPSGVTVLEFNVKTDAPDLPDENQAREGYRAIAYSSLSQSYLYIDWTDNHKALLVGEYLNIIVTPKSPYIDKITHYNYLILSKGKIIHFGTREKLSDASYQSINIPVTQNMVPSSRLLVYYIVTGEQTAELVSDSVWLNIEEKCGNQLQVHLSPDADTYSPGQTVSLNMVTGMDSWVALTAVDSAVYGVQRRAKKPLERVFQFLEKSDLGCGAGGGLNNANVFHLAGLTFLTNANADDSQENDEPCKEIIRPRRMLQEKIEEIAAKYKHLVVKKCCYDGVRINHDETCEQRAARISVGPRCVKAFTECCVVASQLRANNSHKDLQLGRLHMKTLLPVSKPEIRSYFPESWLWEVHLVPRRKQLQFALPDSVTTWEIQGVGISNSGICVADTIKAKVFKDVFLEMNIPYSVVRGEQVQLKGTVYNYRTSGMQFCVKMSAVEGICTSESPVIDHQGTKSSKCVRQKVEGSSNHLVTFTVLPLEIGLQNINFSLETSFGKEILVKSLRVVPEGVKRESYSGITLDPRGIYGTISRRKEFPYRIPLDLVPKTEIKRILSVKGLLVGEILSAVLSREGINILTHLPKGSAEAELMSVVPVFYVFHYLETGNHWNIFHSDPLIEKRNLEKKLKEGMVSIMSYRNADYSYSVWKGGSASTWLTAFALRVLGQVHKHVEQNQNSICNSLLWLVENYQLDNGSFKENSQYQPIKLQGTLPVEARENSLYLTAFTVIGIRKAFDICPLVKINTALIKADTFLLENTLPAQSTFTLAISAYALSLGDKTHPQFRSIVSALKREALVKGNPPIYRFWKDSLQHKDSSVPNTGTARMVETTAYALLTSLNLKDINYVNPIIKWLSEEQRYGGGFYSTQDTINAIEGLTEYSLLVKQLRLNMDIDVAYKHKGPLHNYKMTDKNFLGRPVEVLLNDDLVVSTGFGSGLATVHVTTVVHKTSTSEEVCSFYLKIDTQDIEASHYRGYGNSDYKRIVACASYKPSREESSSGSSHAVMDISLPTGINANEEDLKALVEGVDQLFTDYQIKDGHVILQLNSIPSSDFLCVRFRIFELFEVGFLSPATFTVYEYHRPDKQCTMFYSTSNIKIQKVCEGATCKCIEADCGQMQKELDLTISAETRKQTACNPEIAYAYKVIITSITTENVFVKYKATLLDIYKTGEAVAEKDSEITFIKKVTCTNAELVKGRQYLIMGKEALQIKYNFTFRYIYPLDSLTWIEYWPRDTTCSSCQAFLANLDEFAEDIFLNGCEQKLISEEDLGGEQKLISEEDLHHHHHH
- test.name: SPR, mAb captured via anti-hFc, 37C
- Experimental: Equilibrium dissociation constants (KD values) for C5 binding to purified anti-C5 antibodies were determined using a real-time surface plasmon resonance biosensor assay on a Biacore T200 instrument. […] Human C5 was obtained from a commercial source (EMD). […] Association of all the C5 reagents to each of the captured monoclonal antibodies was monitored for 3 minutes and their dissociation in HBST running buffer was monitored for 8 minutes. […]
A collection of binders and their measured t1/2
recorded.metric: t1/2 (h)

binder	unit.annotation	observed.result
H4H12166P4 (antibody, human IgG4, V domains shown, Histidine-mutated CDR variant of H4H12166P; human IgG4 Fc with S108P) VH: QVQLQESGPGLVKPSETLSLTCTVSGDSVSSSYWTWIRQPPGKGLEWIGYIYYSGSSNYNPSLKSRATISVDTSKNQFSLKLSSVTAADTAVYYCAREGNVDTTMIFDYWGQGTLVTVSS VL: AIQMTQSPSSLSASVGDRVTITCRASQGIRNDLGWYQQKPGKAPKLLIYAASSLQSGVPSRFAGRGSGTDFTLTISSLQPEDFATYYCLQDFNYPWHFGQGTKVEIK	h	0.1
H4H12159P (antibody, human IgG4, V domains shown, Human IgG4 Fc with S108P hinge mutation (H4H)) VH: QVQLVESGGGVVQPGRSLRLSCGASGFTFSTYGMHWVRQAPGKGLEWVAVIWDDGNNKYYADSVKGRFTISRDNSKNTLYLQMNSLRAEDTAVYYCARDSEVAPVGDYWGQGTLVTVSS VL: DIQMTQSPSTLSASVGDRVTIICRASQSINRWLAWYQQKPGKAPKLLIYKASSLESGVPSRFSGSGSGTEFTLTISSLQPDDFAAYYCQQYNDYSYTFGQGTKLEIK	h	3.5

Taken from patent US20170355757A1.
